molecular target: human PPARα receptor (Homo sapiens, UniProt Q07869); assay: Cellular transactivation assay (GAL4-PPARα chimera, luciferase reporter); settings: CHO cells stably expressing GAL4-PPARα chimera (human PPARα ligand binding domain) and luciferase reporter; 6 h stimulation
Sequence (Q07869 167-468): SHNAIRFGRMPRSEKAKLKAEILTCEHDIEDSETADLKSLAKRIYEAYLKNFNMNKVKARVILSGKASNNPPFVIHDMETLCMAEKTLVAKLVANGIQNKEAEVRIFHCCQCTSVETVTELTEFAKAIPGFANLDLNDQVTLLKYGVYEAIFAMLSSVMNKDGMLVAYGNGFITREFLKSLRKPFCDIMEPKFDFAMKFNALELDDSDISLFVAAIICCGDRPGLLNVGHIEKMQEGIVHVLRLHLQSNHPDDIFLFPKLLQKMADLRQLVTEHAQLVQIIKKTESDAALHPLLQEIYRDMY
pEC50: −log10 of the molar value. Structures can show the parent of a compound that is named as a salt.
value kind: pEC50

Examples from the recorded data:
CC(C)(C)CCOc1nc(-c2ccc(Br)cc2)cc(C(F)(F)F)c1C(=O)O    6.74
CC(C)CCOc1nc(-c2cc(F)cc(F)c2)cc(C(F)(F)F)c1C(=O)O    7.38
CCOc1nc(-c2ccc(C)c(F)c2)cc(C(F)(F)F)c1C(=O)O    7.02
Cc1ccc(-c2cc(C(F)(F)F)c(C(=O)O)c(NC(C)C)n2)cc1F    7.08
Cc1ccc(-c2cc(C(F)(F)F)c(C(=O)O)c(OC(C)C3CCCCC3)n2)cc1F (centres unmarked)    6.92

P: O=C(O)c1c(C(F)(F)F)cc(-c2ccc(Cl)cc2)nc1NCC1CC1
Q: COCCN(C)c1nc(-c2ccc(C)c(F)c2)cc(C(F)(F)F)c1C(=O)O [Example 47, hydrochloride]
R: CC(C)Cc1nc(-c2ccc(Cl)cc2)cc(C(F)(F)F)c1C(=O)O [Example 77, sodium salt]
Arrange the 3 entries by pEC50 so the values rise. Answer format: the labels, ordered as requested.
Q, P, R
